experiment: yeast display, Sf9 membrane polyspecificity reagent, FACS + sequencing; frameworks hold sequencing errors
readout type: polyreactivity (PSR sort gate)

[[record]]
construct_sequence = "QVQLVESGGGLVQAGGSLRLSCAASGLKFGVNPMGWYRPAPGKERELVAAISRDSDTNYADSVKGRFTISRDNAKNTVYLQMISLKPEDTAVYYFNAYSEWPVPSPPRSQSLDYWGQGTQVTVSS"
readout_type = "polyreactivity (PSR sort gate)"
test_result = "low polyreactivity"

[[record]]
construct_sequence = "QVQLVESGGGLVQAGGSLRLSCAASGITFVGYAMGWYRQAPGKERELVAVINTSSSTYYADSVKGRFTISRDNAKNTVYLQMNSLKPVDTAVYYCADYAYYRYFIPAVLYDYWGQGTQVTVSS"
readout_type = "polyreactivity (PSR sort gate)"
test_result = "low polyreactivity"

[[record]]
construct_sequence = "QVQLVESGGGLVQAGGSLRLSCAASGFIFSSYAMGWYRQAPGKEREFVASISASGGTTYYADSVKGRFTISRDNAKNTVYLQMNSLKPEDTAVYYCAAPWLDAEDYWGQGTQVTVSS"
readout_type = "polyreactivity (PSR sort gate)"
test_result = "high polyreactivity"

[[record]]
construct_sequence = "QVQLVESGGGLVQAGGSLRLSCAASGLTFLVYAMGWYRQAPGKERELVAAITSIGDSTFYADSVKGRFTISRDNAKNTVYLQMNSLKPEDTAVYYCNADGPAGDIKFTLLDYDYWGQGTQVTVSS"
readout_type = "polyreactivity (PSR sort gate)"
test_result = "low polyreactivity"

[[record]]
construct_sequence = "QVQLVESGGGLVQAGGSLRLSCAASGRTFYGYAMGWYRPAPGKERELVAAIDRGGSTDYADSVKGRFTISRDNAKNTVYLQLNSLKTEDTAVYYCAKGYDYYGRRYYYWGQGTQVTVSS"
readout_type = "polyreactivity (PSR sort gate)"
test_result = "high polyreactivity"


Values were extracted from the nanobody polyreactivity screen of Harvey et al. (2022).
